Target: BRD4(BD1) (Homo sapiens (Human), UniProt O60885)
Assay: In vitro enzyme inhibition assay (BRD4 AlphaScreen, H4-tetraacetyl peptide)
Settings: BRD4(BD1) 2 nM, peptide 15 nM
pIC50: −log10 of the molar value.
endpoint-label: pIC50

- compound: "Cn1cc(-c2ccc3c(c2)S(=O)(=O)NC3)c2ccccc2c1=O [Example 2]"
  endpoint-label: "pIC50"
  observed-measurement: "5.30 to 6.30"
- compound: "Cc1cc(-c2cc(NS(C)(=O)=O)ccc2Oc2ccc(F)cc2F)c2n(c1=O)CCC2 [Example 86]"
  endpoint-label: "pIC50"
  observed-measurement: "≥ 6.30"
- compound: "Cc1cc(-c2cc(NS(C)(=O)=O)c3nc(C(F)(F)F)n(CC4CC4)c3c2)cn(C)c1=O [Example 92]"
  endpoint-label: "pIC50"
  observed-measurement: "≥ 6.30"
- compound: "Cn1cc(-c2cc3c(cc2OCC2CC2)CCN3S(C)(=O)=O)c2ccccc2c1=O [Example 13]"
  endpoint-label: "pIC50"
  observed-measurement: "≥ 6.30"
